Item-by-item account of SFC/donor
- System: HDM-specific T cells expanded from PBMCs of HDM-allergic individuals
- test-description: T cell reactivity of peptides: IFN/IL-5 ELISPOT on in vitro expanded HDM-specific T cells
- Format: cell-based, human
- applied-conditions: individual peptides 10 μg/mL
- Description: Each sequence of an “L” cluster was aligned separately using the MEGA software tool with ClustalW. Fifteen-mer peptides overlapping by 10 amino acids were generated and the last 15-mer peptide was added when the sequence length was not divisible by 5, 14,783 unique peptides remained. […]
measured-attribute: SFC/donor (SFC/donor)

substance	measure-unit	recorded-value
DWRNLYPRKYAFALP (Immunogenic fragment) [Peptide 186, fragment of A0023 Der f]	SFC/donor	64
52 (EIIRRFEAKGFKLVA; Immunogenic fragment) [compound 52]	SFC/donor	40
84 (IHQLNDQVLRLKFID; Immunogenic fragment) [compound 84]	SFC/donor	3
SLRGVTIRNAPFLEE (Immunogenic fragment) [Peptide 178, fragment of A0023 Der f]	SFC/donor	42
